Data provenance is patent US20120149881A1.

# measurement-target: T1, human IgE with the M1′ sequence (long form of membrane IgE) expressed on transduced BJAB or Daudi cells (human, UniProt P01854 116-546)
# T1 construct: Full-length heavy and light chains of the U266 IgE B cell receptor, retrovirally expressed; also called IgE/M1′; IgE-M1′
# T1 sequence (P01854 116-546 I515L limits assumed): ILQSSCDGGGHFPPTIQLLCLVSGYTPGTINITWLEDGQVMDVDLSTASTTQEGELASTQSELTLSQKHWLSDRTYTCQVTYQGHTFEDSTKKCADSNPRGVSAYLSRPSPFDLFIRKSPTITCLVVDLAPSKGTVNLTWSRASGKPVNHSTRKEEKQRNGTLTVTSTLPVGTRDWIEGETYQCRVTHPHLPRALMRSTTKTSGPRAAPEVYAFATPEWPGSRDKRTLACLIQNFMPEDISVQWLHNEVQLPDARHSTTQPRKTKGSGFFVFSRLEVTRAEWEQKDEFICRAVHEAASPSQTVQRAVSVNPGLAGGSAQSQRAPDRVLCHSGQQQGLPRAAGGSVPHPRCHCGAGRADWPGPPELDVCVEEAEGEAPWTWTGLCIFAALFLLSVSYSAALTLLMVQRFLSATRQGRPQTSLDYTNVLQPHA
# assay-info: competitive ECL binding on BJAB-IgE/M1′ cells vs biotinylated 26A11 or 47H4, 2nd IC50 column
recorded-endpoint: pIC50
Please report pIC50 as the negative decimal logarithm of the molar concentration, giving only the number.

Data request: Entry under review: humanized anti-IgE/M1′ antibody 26A11.v14 (antibody, V domains shown, produced as IgG) VH: EVQLVESGGGLVQPGGSLRLSCAASGYTFTDYYMMWVRQAPGKGLEWVGDINPNNYDTSYNQKFKGRFTISADTSKNTAYLQMNSLRAEDTAVYYCASKAYWGQGTLVTVSS VL: DIQMTQSPSSLSASVGDRVTITCRSSQDISQSLNWYQQKPGKAPKLLIYSTSRLHSGVPSRFSGSGSGTDFTLTISSLQPEDFATYYCQQGHTLPWTFGQGTKVEIKR . Reported pIC50?
Data returned: 7.72

Data request: Fill blank: measured pIC50 of the binder humanized anti-IgE/M1′ antibody 47H4.v5 (antibody, V domains shown, huIgG1; also called 47H4v5 huIgG1; 47H5 v.5) VH: EVQLVESGGGLVQPGGSLRLSCAASGFTFSDYGIAWVRQAPGKGLEWVAFISDLAYTIYYADTVTGRFTISRDNSKNTLYLQMNSLRAEDTAVYYCARDNWDAMDYWGQGTLVTVSS VL: DIQMTQSPSSLSASVGDRVTITCRSSQSLVHNNANTYLHWYQQKPGKAPKLLIYKVSNRFSGVPSRFSGSGSGTDFTLTISSLQPEDFATYYCSQNTLVPWTFGQGTKVEIKR is ____.
Data returned: 7.22

Data request: Fill in: pIC50 of humanized anti-IgE/M1′ antibody 26A11.v4 (antibody, V domains shown, produced as IgG) VH: EVQLVESGGGLVQPGGSLRLSCAASGYTFTDYYIMWVRQAPGKGLEWVGDINPNNYDTSYNQKFKGRFTISADTSKNTAYLQMNSLRAEDTAVYYCASKAYWGQGTLVTVSS VL: DIQMTQSPSSLSASVGDRVTITCRSSQDISNSLNWYQQKPGKAPKLLIYSTSRLHSGVPSRFSGSGSGTDFTLTISSLQPEDFATYYCQQGHTLPWTFGQGTKVEIKR is ___
Data returned: 7.54

Data request: What value of pIC50 has been reported for the following binder? humanized anti-IgE/M1′ antibody 26A11.v16 (antibody, V domains shown, produced as IgG) VH: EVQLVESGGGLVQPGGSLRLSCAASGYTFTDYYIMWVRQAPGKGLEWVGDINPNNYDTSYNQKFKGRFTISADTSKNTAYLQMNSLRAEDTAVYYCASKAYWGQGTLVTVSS VL: DIQMTQSPSSLSASVGDRVTITCRSSQDISQSLNWYQQKPGKAPKLLIYSTSRLHSGVPSRFSGSGSGTDFTLTISSLQPEDFATYYCQQGHTLPWTFGQGTKVEIKR
Data returned: 7.57
